The reported measurements were obtained from patent US20250231157A1.

experiment: Partition equilibrium with addition of calcium and strontium salts to the aqueous phase; type: physicochemical; conditions: Strontium 1200 mg · L^−1; salinity 3.5%
Record form. Attribute: Migration. Fill in for each entry.

Below are 5 molecules. Give each one its Migration.
1. O=C(O)CCCCc1ccccc1
2. CCCCC(=O)O
3. O=C(O)C(C1CCCCC1)C1CCCCC1
4. O=C(O)CCCCC1CCCCC1
5. O=C(O)c1ccccc1

## Result
5.3 %, mol
100.0 %, mol
20.0 %, mol
5.3 %, mol
83.0 %, mol

* * *

Record form. Attribute: Migration. Fill in for each entry.
assay: Partition equilibrium in the presence of demulsifiers (Dissolvan 961, Dissolvan 974); details: D961 100 mg · L^−1

{"columns": ["compound", "Migration"],
 "data": [
  ["O=C(O)CCCCc1ccccc1 [5-Phenylpentanoic Acid, 5-phenylpentanoic acid]", "21.0 %, mol"],
  ["CCCCC(=O)O [Pentanoic Acid, pentanoic acid]", "70.0 %, mol"],
  ["O=C(O)c1ccccc1 [Benzoic Acid, benzoic acid]", "70.3 %, mol"]
]}

## Task // Input: O=C(O)CCCCC1CCCCC1 [Cyclohexanepentanoic Acid, cyclohexanepentanoic acid] . Output its Migration only.
## Result 5.16 %, mol
